Source: paper PMC9555642

assay-system: HDAC10 (Homo sapiens, UniProt Q969S8)
Construct: purchased Eurofins Pharma Discovery Services 2662
Sequence (Q969S8 whole entry): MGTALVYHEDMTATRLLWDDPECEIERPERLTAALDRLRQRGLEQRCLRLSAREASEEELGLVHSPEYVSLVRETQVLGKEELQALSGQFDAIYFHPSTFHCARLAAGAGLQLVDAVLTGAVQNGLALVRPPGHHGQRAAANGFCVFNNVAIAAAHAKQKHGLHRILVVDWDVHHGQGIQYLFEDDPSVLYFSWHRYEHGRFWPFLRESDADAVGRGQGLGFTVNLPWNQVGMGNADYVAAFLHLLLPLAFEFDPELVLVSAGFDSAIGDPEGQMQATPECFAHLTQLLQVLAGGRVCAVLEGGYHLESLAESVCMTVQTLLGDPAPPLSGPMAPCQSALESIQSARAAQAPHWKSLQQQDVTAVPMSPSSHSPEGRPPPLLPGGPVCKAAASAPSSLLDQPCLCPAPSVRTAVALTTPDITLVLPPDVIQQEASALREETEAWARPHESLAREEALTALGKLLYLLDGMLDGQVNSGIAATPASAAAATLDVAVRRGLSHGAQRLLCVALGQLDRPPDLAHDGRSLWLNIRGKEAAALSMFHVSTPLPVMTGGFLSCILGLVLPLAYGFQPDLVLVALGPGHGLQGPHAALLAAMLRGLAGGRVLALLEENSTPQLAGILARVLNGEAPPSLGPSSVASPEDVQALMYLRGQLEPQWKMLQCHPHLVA
measurement-notes: HDAC enzymatic activity (Eurofins)
Format: biochemical
measurement-label: pIC50
// pIC50 here means minus log10 of the molar concentration (mol/L)

Quick one: give measured pIC50 for O=C(CCCCCCNC(=O)c1cnc(N(c2ccccc2)c2ccccc2)nc1)NO 6.05
